Reference for the values: patent US11884676B2

Can you tell me Emax at 30 µM for the items I'm about to list?
Target: Human M4 (Homo sapiens, UniProt P08173)
Construct: expressed in transfected cells
Sequence (P08173 1-479): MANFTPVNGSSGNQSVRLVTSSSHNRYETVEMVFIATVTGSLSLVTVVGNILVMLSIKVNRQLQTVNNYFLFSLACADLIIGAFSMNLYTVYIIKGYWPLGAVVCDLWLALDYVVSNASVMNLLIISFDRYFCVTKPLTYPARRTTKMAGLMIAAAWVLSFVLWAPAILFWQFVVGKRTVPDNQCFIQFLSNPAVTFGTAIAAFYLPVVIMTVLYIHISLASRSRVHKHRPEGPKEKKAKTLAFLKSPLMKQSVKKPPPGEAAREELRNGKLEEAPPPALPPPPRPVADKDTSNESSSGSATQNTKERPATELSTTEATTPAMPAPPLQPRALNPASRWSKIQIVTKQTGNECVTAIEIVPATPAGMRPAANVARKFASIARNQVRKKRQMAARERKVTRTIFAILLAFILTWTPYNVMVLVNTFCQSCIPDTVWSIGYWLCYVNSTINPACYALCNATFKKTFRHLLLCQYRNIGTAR
Experiment: mAChR M4 cell-based functional assay (calcium flux, PAM mode)
Conditions: CHO-K1, % ACh maximum at 30 μM; hM4-Gqi5 CHO-K1 cells

Okay, here is my list. What is Emax at 30 µM for each of these?
1. CCc1ccc(OC2CCN(c3nn4c(=O)ccnc4cc3C)CC2)cc1
2. [2H]C1([2H])Oc2ccc(OC3CCN(c4nn5c(=O)ccnc5cc4C)CC3)cc2OC1([2H])[2H]

**A:**
76%
91%
